Source: PubChem BioAssay (NCI)

For each of the molecules below, state its GI50.
- Tested on: SNB-19 CNS
- METHOD_SUMMARY: NCI tumour cell line growth inhibition, 48 h

(Q) In one line, give reported GI50 of the entry Cn1c(C(=O)c2cccc3ccccc23)nc2ccccc21 .
(A) > 100000 nM

(Q) In one line, give reported GI50 of the entry COc1cc(C(=O)/C=C/c2c(C(F)(F)F)nc3ccccn23)cc(OC)c1OC .
(A) 1930 nM

(Q) In one line, give reported GI50 of the entry COc1ccc(-c2[nH]c3ccccc3c2/C=C(\C#N)S(=O)(=O)c2ccccc2)cc1 .
(A) 844 nM

(Q) In one line, give reported GI50 of the entry CC1CCC2C(CN(CC3=C(C(F)(F)F)OC4OC5(C)CCC6C(C)CCC3C46OO5)CC3=C(C(F)(F)F)OC4OC5(C)CCC6C(C)CCC3C46OO5)=C(C(F)(F)F)OC3OC4(C)CCC1C32OO4 (stereo unspecified) .
(A) 30800 nM

(Q) In one line, give reported GI50 of the entry O=c1[nH]c2ccccc2n1C1CCN(CCCC(c2ccc(F)cc2)c2ccc(F)cc2)CC1 .
(A) 1670 nM

(Q) In one line, give reported GI50 of the entry O=C1/C(=C/c2ccccc2[N+](=O)[O-])COc2ccc(O)cc21 .
(A) 4150 nM

* * *

- Test system: HOP-62 NSCLC
- METHOD_SUMMARY: NCI tumour cell line growth inhibition, 48 h
For each of the compounds below, state its TGI.

(Q) In one line, give reported TGI of the entry O=C(O)Cc1cccc2c(=O)c3cccc([N+](=O)[O-])c3[nH]c12 .
(A) > 100 µM

(Q) In one line, give reported TGI of the entry c1ccc(C2CCCCC2)c(OCCCCCN2CCNCC2)c1 .
(A) 28.5 µM

(Q) In one line, give reported TGI of the entry Nc1nc(C(=O)O)c(N=Nc2ccccc2)c(=O)[nH]1 .
(A) > 100 µM

(Q) In one line, give reported TGI of the entry O=S(=O)(O)c1ccc2cc(N=Nc3c(O)ccc4ccccc34)ccc2c1 .
(A) > 100 µM

(Q) In one line, give reported TGI of the entry CNC(=O)CCCNC(=O)CCCC(=O)OC .
(A) > 100 µM

(Q) In one line, give reported TGI of the entry COC(=O)[C@@]1(NC(=O)C(CC(=O)OC(C)(C)C)NC(=O)OC(C)(C)C)C[C@H]1C (stereo partly specified) .
(A) > 100 µM

* * *

- Test system: ACHN renal
- METHOD_SUMMARY: NCI tumour cell line growth inhibition, 48 h
PROPERTY_MEASURED: GI50

(Q) In one line, give reported GI50 of the entry Cc1ccc(-n2c(-c3cc4c([nH]c5ccccc54)c(-c4cccc(O)c4)n3)n[nH]c2=S)cc1 .
(A) 2.37 µM

(Q) In one line, give reported GI50 of the entry COC1=C(OC)[C@]2(OC)c3c(O)c(OC)c4c(c3O[C@@]23O[C@@H](c2ccccc2)CC=C3C1=O)[C@@H](OC)C[C@H](c1ccccc1)O4 .
(A) 0.605 µM

(Q) In one line, give reported GI50 of the entry COc1ccc(/C=N\Nc2nc(SCC(C)C)nc(-c3ccc(OC)cc3)c2C#N)cc1 .
(A) 0.71 µM

(Q) In one line, give reported GI50 of the entry Nc1nc2ccccc2c2c1S(=O)(=O)c1ccc(Cl)cc1C2=O .
(A) 1.38 µM
